TEST_TARGET: CD28 (Homo sapiens, UniProt P10747)
RUN_DESCRIPTION: Flow binding to Jurkat/IL2 reporter cells (CD28)
Set-up: host or cells: Jurkat cells expressing an IL-2-luciferase reporter
TEST_PARAMETERS: Table E20; Jurkats (CD28); 33.3 nM
Lab note - cut at 3000 for CD28 MFI at 33.3 nM: YES if strictly below, NO if not.

Recorded results for 2 molecules are shown here.
H18Y/A26E/V68M/D90G (protein) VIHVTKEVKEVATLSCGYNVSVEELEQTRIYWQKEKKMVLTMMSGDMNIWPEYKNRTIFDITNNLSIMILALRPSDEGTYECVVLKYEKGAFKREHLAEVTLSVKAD
YES
M47L/V68M/A71G/D90G (protein) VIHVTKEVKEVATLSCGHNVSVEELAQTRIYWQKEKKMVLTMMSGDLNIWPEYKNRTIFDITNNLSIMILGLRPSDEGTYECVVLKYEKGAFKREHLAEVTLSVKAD
NO

Ask: Hello, I'm reviewing records and need to know if CD28 MFI at 33.3 nM of A26E/M47L/V68M/D90G (protein) VIHVTKEVKEVATLSCGHNVSVEELEQTRIYWQKEKKMVLTMMSGDLNIWPEYKNRTIFDITNNLSIMILALRPSDEGTYECVVLKYEKGAFKREHLAEVTLSVKAD is below 3000. Could you check?
Result: YES

Ask: Hello, I'm reviewing records and need to know if CD28 MFI at 33.3 nM of H18Y/M47L/V68M/D90G (protein) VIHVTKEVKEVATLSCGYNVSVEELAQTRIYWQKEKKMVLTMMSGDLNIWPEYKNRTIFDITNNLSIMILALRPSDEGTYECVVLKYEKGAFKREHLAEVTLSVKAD is below 3000. Could you check?
Result: NO

Ask: Hello, I'm reviewing records and need to know if CD28 MFI at 33.3 nM of H18Y/V68M/A71G/D90G (protein) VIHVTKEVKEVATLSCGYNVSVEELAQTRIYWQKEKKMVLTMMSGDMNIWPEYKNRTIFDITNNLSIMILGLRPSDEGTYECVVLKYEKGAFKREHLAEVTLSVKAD is below 3000. Could you check?
Result: NO
